- Tgt: rat adrenergic α1B receptor (Rattus norvegicus, UniProt P15823)
- Construct: rat adrenergic α1B receptor obtained from Wistar Rat liver; from tissue; host or cells: Wistar rat liver
- Sequence (P15823 whole entry): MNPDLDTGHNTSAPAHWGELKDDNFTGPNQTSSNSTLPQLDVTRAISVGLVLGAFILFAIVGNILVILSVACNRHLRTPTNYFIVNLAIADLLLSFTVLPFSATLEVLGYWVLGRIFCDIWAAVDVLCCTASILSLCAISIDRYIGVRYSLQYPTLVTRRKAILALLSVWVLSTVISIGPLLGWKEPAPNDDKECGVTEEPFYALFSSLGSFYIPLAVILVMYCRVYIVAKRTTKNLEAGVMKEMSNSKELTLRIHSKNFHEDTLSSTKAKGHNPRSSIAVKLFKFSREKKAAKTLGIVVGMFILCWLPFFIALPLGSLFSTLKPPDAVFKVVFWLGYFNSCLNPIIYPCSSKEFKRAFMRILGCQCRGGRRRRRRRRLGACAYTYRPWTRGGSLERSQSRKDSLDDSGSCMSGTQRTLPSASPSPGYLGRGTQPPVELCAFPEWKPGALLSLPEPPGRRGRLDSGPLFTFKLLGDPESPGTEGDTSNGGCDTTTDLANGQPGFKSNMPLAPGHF
- Test protocol: Radioligand binding, adrenergic α1B ([3H]Prazosin)
- Parameters: species or system Wistar Rat
- Condition set: 0.1 μM compound, 0.1 µM
Just so you know, the groups by Percentage inhibition of ligand binding, Adrenergic α1B go like this: range 1 (below 30%), range 2 (30% to below 50%), range 3 (50% or more)

INSERT INTO assay_data (molecule, tgt, label_class) VALUES
  ('Cc1ccc2c(c1)c1c(n2CC(c2ccncc2)N(C)C)CCN(C)C1 (single isomer, unassigned) [150b]', 'rat adrenergic α1B receptor (Rattus norvegicus, UniProt P15823)', 'range 1'),
  ('Cc1cnc2c(c1)c1c(n2CC(C)(O)c2ccc(C)nc2)CCN2CCCC12 (single isomer, unassigned) [148c]', 'rat adrenergic α1B receptor (Rattus norvegicus, UniProt P15823)', 'range 1'),
  ('Cc1cnc2c(c1)c1c(n2CC(N)c2ccc(C#N)cc2)CCNC1 (single isomer, unassigned) [160b]', 'rat adrenergic α1B receptor (Rattus norvegicus, UniProt P15823)', 'range 3'),
  ('CN1CCc2c(c3cc(Cl)ccc3n2CC(C)(O)c2ccc(C(F)(F)F)nc2)C1 (single isomer, unassigned) [143b]', 'rat adrenergic α1B receptor (Rattus norvegicus, UniProt P15823)', 'range 1'),
  ('Cc1ccc2c(c1)c1c(n2CC(O)c2ccncc2C)CCN(C)C1 (stereo not shown) [133a]', 'rat adrenergic α1B receptor (Rattus norvegicus, UniProt P15823)', 'range 3'),
  ('Cc1cnc2c(c1)c1c(n2CC(N)c2ccc(C#N)cc2)CCNC1 (single isomer, unassigned) [160a]', 'rat adrenergic α1B receptor (Rattus norvegicus, UniProt P15823)', 'range 2'),
  ('Cc1cnc2c(c1)c1c(n2CC(N)c2ccc(C#N)cc2)CCN(C)C1 (single isomer, unassigned) [159b]', 'rat adrenergic α1B receptor (Rattus norvegicus, UniProt P15823)', 'range 3'),
  ('Cc1ccc2c(c1)c1c(n2CC(C)(O)c2cccnc2)CNCC1 (stereo not shown) [128b]', 'rat adrenergic α1B receptor (Rattus norvegicus, UniProt P15823)', 'range 2'),
  ('Cc1ccc2c(c1)c1c(n2CC(C)(O)c2ccc(C)nc2)CN(C)CC1 (single isomer, unassigned) [196a]', 'rat adrenergic α1B receptor (Rattus norvegicus, UniProt P15823)', 'range 3');
